Each recorded value in this set is attributed to ChEMBL document CHEMBL5058577.

system: U2OS; test: Multiplex assay against U2OS; format: toxicity, cell-based; conditions: human, 24 h, 10 µM, compound concentration 10 uM, replicate 1
Quick rule: Population Healthy Nuclei (%) of at least 50% means criterion met, below that means criterion not met.

{"compound": "C=CCN1C[C@H](C(=O)N(CCCN(C)C)C(=O)NCC)C[C@@H]2c3cccc4[nH]cc(c34)C[C@H]21 [CABERGOLINE]", "target": "U2OS", "answerLabel": "criterion met"}

Query string: Hi, just wondering whether S=C(NCCCc1c[nH]cn1)NCCCN(Cc1ccc(Cl)c(Cl)c1)c1ccc(Br)cn1 shows Population Healthy Nuclei (%) of 50% or higher.
Result string: criterion not met

Query string: Hi, just wondering whether COC(c1ccccc1)(c1ccccc1)[C@H](Oc1nc(C)cc(C)n1)C(=O)O [AMBRISENTAN] shows Population Healthy Nuclei (%) of 50% or higher.
Result string: criterion met

Query string: Hi, just wondering whether Cn1cc(C(=O)OCC2CCN(CCNS(C)(=O)=O)CC2)c2ccccc21 shows Population Healthy Nuclei (%) of 50% or higher.
Result string: criterion met

Query string: Hi, just wondering whether COc1cc(OC2CCN(C(C)=O)CC2)ccc1C(=O)N1CCC(N2C(=O)OCc3ccccc32)CC1 shows Population Healthy Nuclei (%) of 50% or higher.
Result string: criterion met

Query string: Hi, just wondering whether CN(C)C/C=C/C(=O)Nc1ccc(C(=O)N2CCCC(Nc3ncc(Cl)c(-c4c[nH]c5ccccc45)n3)C2)cc1 (configuration not stated) shows Population Healthy Nuclei (%) of 50% or higher.
Result string: criterion not met
